Origin of values: patent US20260083864A1

target: OATP1B1 (Homo sapiens, UniProt Q9Y6L6); test: Uptake into stable transfected OATP1B1 HEK 293 cells; assay type: cell-based; conditions: 40 min incubation, relative to RC1 (Gd-EOB-DTPA)
Sequence (Q9Y6L6 whole entry): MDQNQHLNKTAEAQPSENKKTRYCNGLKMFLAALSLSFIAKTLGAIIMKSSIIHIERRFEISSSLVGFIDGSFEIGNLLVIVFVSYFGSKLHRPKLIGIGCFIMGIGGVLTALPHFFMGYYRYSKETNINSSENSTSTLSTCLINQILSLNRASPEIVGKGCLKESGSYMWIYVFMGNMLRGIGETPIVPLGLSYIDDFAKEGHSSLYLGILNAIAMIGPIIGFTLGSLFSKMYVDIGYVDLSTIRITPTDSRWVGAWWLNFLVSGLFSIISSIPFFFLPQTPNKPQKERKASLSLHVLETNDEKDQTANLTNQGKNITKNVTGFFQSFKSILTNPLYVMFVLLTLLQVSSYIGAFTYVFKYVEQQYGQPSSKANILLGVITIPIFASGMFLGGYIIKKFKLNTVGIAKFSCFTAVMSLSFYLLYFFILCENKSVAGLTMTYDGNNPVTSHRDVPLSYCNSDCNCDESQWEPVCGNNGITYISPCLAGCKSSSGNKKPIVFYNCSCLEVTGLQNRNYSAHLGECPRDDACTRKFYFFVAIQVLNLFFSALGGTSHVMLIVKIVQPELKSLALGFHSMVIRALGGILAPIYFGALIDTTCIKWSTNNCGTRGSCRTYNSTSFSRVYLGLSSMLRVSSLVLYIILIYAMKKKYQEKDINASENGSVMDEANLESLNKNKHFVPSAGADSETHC
Measured Uptake into OATP1B1-HEK 293 cells of individual entries

These solved cases illustrate the format of a correct answer.
CCOc1ccc(CCCC[C@@H](C(=O)O)N2CCN(CC(=O)[O-])CCN(CC(=O)[O-])CCN(CC(=O)[O-])CC2)cc1.[Gd+3] :: 284 % of RC1
CCCCOc1cccc(CCC[C@@H](C(=O)O)N2CCN([C@@H](CO)C(=O)[O-])CCN([C@@H](CO)C(=O)[O-])CCN([C@@H](CO)C(=O)[O-])CC2)c1.[Gd+3] :: 947 % of RC1

Indicate the recorded Uptake into OATP1B1-HEK 293 cells value for this molecule: CCOCCOc1ccc(CC(C(=O)O)N2CCN(CC(=O)[O-])CCN(C(CC)C(=O)[O-])CCN(CC(=O)[O-])CC2)cc1.[Gd+3] (single isomer, unassigned) [Example 7]
217 % of RC1

Indicate the recorded Uptake into OATP1B1-HEK 293 cells value for this molecule: CCCC(C(=O)[O-])N1CCN(CC(=O)[O-])CCN(C(Cc2ccc(OCC)cc2)C(=O)O)CCN(CC(=O)[O-])CC1.[Gd+3] (stereo not drawn) [Example 29]
493 % of RC1

Indicate the recorded Uptake into OATP1B1-HEK 293 cells value for this molecule: CCOCCOc1ccc(CC(C(=O)O)N2CCN(CC(=O)[O-])CCN(CC(=O)[O-])CCN(CC(=O)[O-])CC2)cc1.[Gd+3] (stereo not drawn)
147 % of RC1

Indicate the recorded Uptake into OATP1B1-HEK 293 cells value for this molecule: CCCCOc1ccc(CC(C(=O)O)N2CCN(CC(=O)[O-])CCN(CC(=O)[O-])CCN(CC(=O)[O-])CC2)cc1.[Gd+3] (stereo not drawn)
856 % of RC1
